- Assay Notes: Stability of (7aS,2′S)-2-oxo-clopidogrel in plasma at −80° C., screening of reducing agent type (Example 5)
- Assay type: in vitro ADME
- Study Conditions: blank plasma containing DTT 100 mg/ml, DTT 100 mg/ml, theoretical 0.1 ng/mL, day 10, read-out: Recovery rate
Experimental Readout: recovery at 10 day, 0.1 ng/mL

[ask] Would you kindly share the measured recovery at 10 day, 0.1 ng/mL for COC(=O)[C@H](c1ccccc1Cl)N1CC[C@@H]2SC(=O)C=C2C1 [(7aS,2′S)-2-oxo-clopidogrel] ?
[reply] 103%

====

- Assay Notes: Stability of (7aS,2′S)-2-oxo-clopidogrel in plasma, screening of TCEP dosage (Example 4)
- Assay type: in vitro ADME
- Study Conditions: plasma containing TCEP 10 mg/ml, TCEP 10 mg/ml; theoretical 0.1 ng/mL; on ice; 60 min; read-out: Recovery rate
Experimental Readout: recovery at 60 min, 0.1 ng/mL (%)
Just the number please, in %, no unit attached.

[ask] Would you kindly share the measured recovery at 60 min, 0.1 ng/mL for COC(=O)[C@H](c1ccccc1Cl)N1CC[C@@H]2SC(=O)C=C2C1 ?
[reply] 86.3

====

- Assay Notes: Stability of (7aS,2′S)-2-oxo-clopidogrel in plasma, screening of TCEP dosage (Example 4)
- Format: in vitro ADME
- Study Conditions: plasma without TCEP, No TCEP; theoretical 12.0 ng/mL; room temperature; 30 min; read-out: Recovery rate
Experimental Readout: recovery at 30 min, 12 ng/mL (%)
Just the number please, in %, no unit attached.

[ask] Would you kindly share the measured recovery at 30 min, 12 ng/mL for COC(=O)[C@H](c1ccccc1Cl)N1CC[C@@H]2SC(=O)C=C2C1 ?
[reply] 78.8

====

- Assay Notes: Stability of (7aS,2′S)-2-oxo-clopidogrel in plasma containing the reducing agent (Example 8)
- Type: in vitro ADME, human
- Study Conditions: human, plasma containing the reducing agent (TCEP); plasma with reducing agent; placing in ice box for 4 h; theoretical 12.0 ng/mL; read-out: Recovery rate
Experimental Readout: recovery at 4 h, 12 ng/mL

[ask] Would you kindly share the measured recovery at 4 h, 12 ng/mL for COC(=O)[C@H](c1ccccc1Cl)N1CC[C@@H]2SC(=O)C=C2C1 ?
[reply] 98.5%

====

- Assay Notes: Stability of (7aS,2′S)-2-oxo-clopidogrel in plasma at −80° C., screening of reducing agent type (Example 5)
- Assay type: in vitro ADME
- Study Conditions: plasma, DTT 100 mg/ml, theoretical 12.0 ng/mL, day 30, read-out: Recovery rate
Experimental Readout: recovery at 30 day, 12 ng/mL (%)
Just the number please, in %, no unit attached.

[ask] Would you kindly share the measured recovery at 30 day, 12 ng/mL for COC(=O)[C@H](c1ccccc1Cl)N1CC[C@@H]2SC(=O)C=C2C1 ?
[reply] 98.9

====

- Assay Notes: Stability of (7aS,2′S)-2-oxo-clopidogrel in plasma at −80° C., screening of reducing agent type (Example 5)
- Type: in vitro ADME
- Study Conditions: blank plasma containing TCEP 100 mg/ml, TCEP 100 mg/ml, theoretical 12.0 ng/mL, day 60, read-out: Recovery rate
- Method: S2. […] ESI ion source, positive ion detection in multiple reaction monitoring mode (MRM); the quantitatively analyzed ions (7aS,2′S)-2-oxo-clopidogrel: m/z 338.100→155.000, IS: m/z 341.100→158.000, a capillary voltage of 4.0 KV, a cone voltage of 25 V, a desolvation gas temperature of 400° C. and a source temperature of 150° C. […]
Experimental Readout: recovery at 60 day, 12 ng/mL (%)
Just the number please, in %, no unit attached.

[ask] Would you kindly share the measured recovery at 60 day, 12 ng/mL for COC(=O)[C@H](c1ccccc1Cl)N1CC[C@@H]2SC(=O)C=C2C1 ?
[reply] 101
